- System: Staphylococcus aureus
- ASSAY_NAME: Antibacterial activity against methicillin-resistant Staphylococcus aureus ATCC 43300 assessed as growth inhibition at 32 ug/ml after 18 hrs by monochromator plate assay relative to control
- Assay type: functional
Consider the following compounds and their measured inhibition at 32 µg/mL readings.
READOUT: inhibition at 32 µg/mL (%)

# GIVEN_SMILES, STUDY_SYSTEM, READOUT, READING_UNIT, REPORTED_RESULT
records = [
    ("Cc1nc(-c2ccc(-c3ccccc3)cc2)sc1-c1cc(C(=O)Nc2ccccc2)n[nH]1", "Staphylococcus aureus", "inhibition at 32 µg/mL", "%", 85.1),
    ("Cc1nc(-c2ccc(-c3ccccc3)cc2)sc1-c1cc(C(=O)Nc2ccc(C(C)(C)C)cc2)n[nH]1", "Staphylococcus aureus", "inhibition at 32 µg/mL", "%", 13.2),
    ("Cc1nc(-c2ccc(-c3ccccc3)cc2)sc1-c1cc(C(=O)NNc2ccccc2)n[nH]1", "Staphylococcus aureus", "inhibition at 32 µg/mL", "%", 8.2),
    ("CCCCc1ccc(NC(=O)c2cc(-c3sc(-c4ccc(-c5ccccc5)cc4)nc3C)[nH]n2)cc1", "Staphylococcus aureus", "inhibition at 32 µg/mL", "%", 9.5),
    ("Cc1nc(-c2ccc(-c3cccc4c3OCO4)cc2)sc1-c1cc(C(=O)NC2CCCCC2)n[nH]1", "Staphylococcus aureus", "inhibition at 32 µg/mL", "%", 41.2),
    ("Cc1cccc(-c2ccc(-c3nc(C)c(-c4cc(C(=O)NC5CCCCC5)n[nH]4)s3)cc2)c1C", "Staphylococcus aureus", "inhibition at 32 µg/mL", "%", 7.2),
    ("COC(=O)c1cc(-c2sc(-c3ccc(I)cc3)nc2C)[nH]n1", "Staphylococcus aureus", "inhibition at 32 µg/mL", "%", 14.2),
    ("Cc1nc(-c2ccc(I)cc2)sc1-c1cc(C(=O)O)n[nH]1", "Staphylococcus aureus", "inhibition at 32 µg/mL", "%", 31.8),
    ("Cc1nc(-c2ccc(-c3ccccc3)cc2)sc1-c1cc(C(=O)Nc2ccc(C(F)(F)F)cc2)n[nH]1", "Staphylococcus aureus", "inhibition at 32 µg/mL", "%", 9.9),
    ("CCOC(=O)c1cc(-c2sc(-c3ccc(I)cc3)nc2C)[nH]n1", "Staphylococcus aureus", "inhibition at 32 µg/mL", "%", 16.4),
    ("Cc1nc(-c2ccc(-c3ccccc3)cc2)sc1-c1cc(C(=O)Nc2ccc(OC(F)F)cc2)n[nH]1", "Staphylococcus aureus", "inhibition at 32 µg/mL", "%", 3.6),
    ("Cc1ccc(-c2ccc(-c3nc(C)c(-c4cc(C(=O)NC5CCCCC5)n[nH]4)s3)cc2)cc1", "Staphylococcus aureus", "inhibition at 32 µg/mL", "%", 23.8),
    ("Cc1nc(-c2ccc(-c3ccccc3)cc2)sc1-c1cc(C(=O)Nc2ccc3c(c2)OCO3)n[nH]1", "Staphylococcus aureus", "inhibition at 32 µg/mL", "%", 3.2),
    ("Cc1ccc(NC(=O)c2cc(-c3sc(-c4ccc(-c5ccccc5)cc4)nc3C)[nH]n2)cc1C", "Staphylococcus aureus", "inhibition at 32 µg/mL", "%", 10.8),
]

---

- Tested on: Candida albicans
- ASSAY_NAME: Antifungal activity against Candida albicans ATCC 90028 assessed as growth inhibition after 36 hrs by monochromator plate assay
- Assay type: functional
Consider the following compounds and their measured MIC readings.

# COMPOUND, MIC
measured = [
    ("Cc1nc(-c2ccc(-c3ccccc3)cc2)sc1-c1cc(C(=O)Nc2ccc(C(C)(C)C)cc2)n[nH]1", "> 32 µg/mL"),
    ("OC(Cn1cncn1)(Cn1cncn1)c1ccc(F)cc1F [FLUCONAZOLE]", "0.125 µg/mL"),
    ("Cc1nc(-c2ccc(I)cc2)sc1-c1cc(C(=O)O)n[nH]1", "> 32 µg/mL"),
    ("COC(=O)c1cc(-c2sc(-c3ccc(I)cc3)nc2C)[nH]n1", "> 32 µg/mL"),
    ("Cc1nc(-c2ccc(-c3ccccc3)cc2)sc1-c1cc(C(=O)Nc2ccccc2)n[nH]1", "> 32 µg/mL"),
]

---

- System: Escherichia coli
- ASSAY_NAME: Antibacterial activity against Escherichia coli ATCC 25922 assessed as growth inhibition after 18 hrs by monochromator plate assay
- Type: functional
Active and inactive are the calls of the source. No cut-off for these calls is given here.

# GIVEN_SMILES, MIC
records = [
    ("CCCCc1ccc(NC(=O)c2cc(-c3sc(-c4ccc(-c5ccccc5)cc4)nc3C)[nH]n2)cc1", "inactive"),
    ("Cc1nc(-c2ccc(-c3ccccc3)cc2)sc1-c1cc(C(=O)Nc2ccc(OC(F)F)cc2)n[nH]1", "inactive"),
    ("Cc1nc(-c2ccc(-c3ccccc3)cc2)sc1-c1cc(C(=O)NCC2CCCCC2)n[nH]1", "inactive"),
    ("Cc1nc(-c2ccc(I)cc2)sc1-c1cc(C(=O)Nc2ccccc2)n[nH]1", "inactive"),
]

---

- Tested on: Klebsiella pneumoniae
- ASSAY_NAME: Antibacterial activity against Klebsiella pneumoniae ATCC 700603 assessed as growth inhibition at 32 ug/ml after 18 hrs by microplate reader assay relative to control
- Type: functional
- CONDITION: dose 32.0 µg/ml
Calls of active or inactive are those of the source. The calls are words filed in the database; no cut-off is given here.

# GIVEN_SMILES, STUDY_SYSTEM, inhibition
rows = [
    ("Cc1nc(-c2ccc(-c3cccc4ccccc34)cc2)sc1-c1cc(C(=O)NC2CCCCC2)n[nH]1", "Klebsiella pneumoniae", "inactive"),
    ("Cc1nc(-c2ccc(-c3cccc4c3OCO4)cc2)sc1-c1cc(C(=O)NC2CCCCC2)n[nH]1", "Klebsiella pneumoniae", "inactive"),
    ("Cc1nc(-c2ccc(-c3ccccc3)cc2)sc1-c1cc(C(=O)NNc2ccccc2)n[nH]1", "Klebsiella pneumoniae", "inactive"),
    ("Cc1cccc(-c2ccc(-c3nc(C)c(-c4cc(C(=O)NC5CCCCC5)n[nH]4)s3)cc2)c1C", "Klebsiella pneumoniae", "inactive"),
    ("Cc1nc(-c2ccc(-c3ccccc3)cc2)sc1-c1cc(C(=O)NCC2CCCCC2)n[nH]1", "Klebsiella pneumoniae", "inactive"),
    ("COC(=O)c1cc(-c2sc(-c3ccc(I)cc3)nc2C)[nH]n1", "Klebsiella pneumoniae", "inactive"),
    ("CCOC(=O)c1cc(-c2sc(-c3ccc(-c4ccccc4)cc3)nc2C)[nH]n1", "Klebsiella pneumoniae", "inactive"),
]

---

- ASSAY_NAME: Haemolytic activity against human whole blood after 70 mins by monochromator plate reader
- Format: ADME, tissue-based
- CONDITION: whole blood

# GIVEN_SMILES, HC50 at 1.167 h
rows = [
    ("Cc1nc(-c2ccc(-c3ccccc3)cc2)sc1-c1cc(C(=O)Nc2ccccc2)n[nH]1", "> 32 µg/mL"),
]

---

Consider the following compounds and their measured inhibition at 32 µg/mL readings.
- Test system: Pseudomonas aeruginosa
- ASSAY_NAME: Antibacterial activity against Pseudomonas aeruginosa ATCC 27853 assessed as growth inhibition at 32 ug/ml after 18 hrs by monochromator plate assay relative to control
- Assay type: functional

# GIVEN_SMILES, STUDY_SYSTEM, inhibition at 32 µg/mL
measured = [
    ("Cc1nc(-c2ccc(I)cc2)sc1-c1cc(C(=O)NN2CCOCC2)n[nH]1", "Pseudomonas aeruginosa", "10.1%"),
    ("Cc1nc(-c2ccc(I)cc2)sc1-c1cc(C(=O)NC2CCCCC2)n[nH]1", "Pseudomonas aeruginosa", "17.8%"),
    ("Cc1ccc(NC(=O)c2cc(-c3sc(-c4ccc(-c5ccccc5)cc4)nc3C)[nH]n2)cc1C", "Pseudomonas aeruginosa", "2.2%"),
    ("Cc1nc(-c2ccc(-c3ccccc3)cc2)sc1-c1cc(C(=O)Nc2ccc(C(C)(C)C)cc2)n[nH]1", "Pseudomonas aeruginosa", "2.2%"),
    ("Cc1nc(-c2ccc(-c3ccccc3)cc2)sc1-c1cc(C(=O)Nc2ccc(C(F)(F)F)cc2)n[nH]1", "Pseudomonas aeruginosa", "2.8%"),
    ("Cc1nc(-c2ccc(-c3ccccc3)cc2)sc1-c1cc(C(=O)Nc2ccc(OC(F)F)cc2)n[nH]1", "Pseudomonas aeruginosa", "7.1%"),
    ("Cc1ccc(-c2ccc(-c3nc(C)c(-c4cc(C(=O)NC5CCCCC5)n[nH]4)s3)cc2)cc1", "Pseudomonas aeruginosa", "16.5%"),
    ("Cc1nc(-c2ccc(-c3cccc4ccccc34)cc2)sc1-c1cc(C(=O)NC2CCCCC2)n[nH]1", "Pseudomonas aeruginosa", "6.1%"),
    ("CCCCc1ccc(NC(=O)c2cc(-c3sc(-c4ccc(-c5ccccc5)cc4)nc3C)[nH]n2)cc1", "Pseudomonas aeruginosa", "5.6%"),
]
